All figures here come from patent US10857170B1.

# test.system: Human recombinant SIRT6 (Homo sapiens)
# Construct: six-histidine (His6); made in house; host or cells: Escherichia coli BL21
# assay: SIRT6 enzymatic activity assay (fluorogenic de-myristoylation of histone H3 peptide-AMC, trypsin-coupled)
# Assay type: biochemical
# measurement.context: Table 2; compound 100 uM; percentage of signal increase relative to control wells
property: % activity 100 uM (%)
Answer in %, number only, no unit symbol.

Example entries begin here.
[
  {
    "compound": "COCCNc1oc2c(c1-c1ccc(C)cc1)c(=O)oc1c(C)cccc12",
    "property": "% activity 100 uM",
    "reported.result": 111
  },
  {
    "compound": "N#Cc1c(N)oc(C2=CC=CC2)c1-c1ccco1",
    "property": "% activity 100 uM",
    "reported.result": 48
  },
  {
    "compound": "Cc1ccccc1CSc1ncc(Sc2ccccc2)c(C(=O)NCc2ccccc2)n1",
    "property": "% activity 100 uM",
    "reported.result": 65
  },
  {
    "compound": "O=C(Nc1ccc2nncn2c1)c1cccc(Cl)c1",
    "property": "% activity 100 uM",
    "reported.result": 51
  },
  {
    "compound": "C=C(OC(C)CC)C1=C(C)NC2=C(C(=C)C(C(=C)OC)C(C)C2)C1c1ccc(N(CC)CC)cc1 (stereo not drawn)",
    "property": "% activity 100 uM",
    "reported.result": 61
  },
  {
    "compound": "Cc1ccnc(NC(c2ccc(C)cc2C)c2ccc3cccnc3c2O)c1 (stereo not drawn)",
    "property": "% activity 100 uM",
    "reported.result": 28
  },
  {
    "compound": "C=C(CC)Nc1ccc(-c2cc(C(=O)NCCCN3CCCC(C)C3)c3ccccc3n2)cc1 (stereo not drawn)",
    "property": "% activity 100 uM",
    "reported.result": 87
  },
  {
    "compound": "C=C1Cc2ccc(C)cc2C2=C1C(c1ccc(F)cc1)=C(NCCOC)C2",
    "property": "% activity 100 uM",
    "reported.result": 246
  }
]

Reported % activity 100 uM for CC(C)(C)c1ccc(C(=O)Nc2ccc3nnc(C4CCC4)n3c2)cc1 was 87

Reported % activity 100 uM for C=C(Cc1ccc2c(c1)C(C)=CC(C)(C)N2)Cc1cccc2ccccc12 was 56

Reported % activity 100 uM for CC1=NCC(c2ccc(O)cc2O)=C1c1ccc(Cl)cc1 was 94

Reported % activity 100 uM for C=C(c1ccc(-c2ccc(N3CCCCC3)nc2)cc1)N(C)C was 54

Reported % activity 100 uM for C=C(CN1C(=C)C(c2nc(-c3ccccc3)no2)=C(C)C=C1C)NCCc1ccc(CC)c(CC)c1 was 73

Reported % activity 100 uM for CC[C@H]1O[C@@H](Cc2ccc3c(c2C)CC(=O)C(C)=C3C)[C@H](C)[C@@H](O)[C@H]1C was 56

---

# maps each entry to its % activity 20 uM
# test.system: Human recombinant SIRT6 (Homo sapiens, UniProt Q8N6T7)
# Construct: six-histidine (His6); made in house; host or cells: Escherichia coli BL21
# Sequence (Q8N6T7 whole entry): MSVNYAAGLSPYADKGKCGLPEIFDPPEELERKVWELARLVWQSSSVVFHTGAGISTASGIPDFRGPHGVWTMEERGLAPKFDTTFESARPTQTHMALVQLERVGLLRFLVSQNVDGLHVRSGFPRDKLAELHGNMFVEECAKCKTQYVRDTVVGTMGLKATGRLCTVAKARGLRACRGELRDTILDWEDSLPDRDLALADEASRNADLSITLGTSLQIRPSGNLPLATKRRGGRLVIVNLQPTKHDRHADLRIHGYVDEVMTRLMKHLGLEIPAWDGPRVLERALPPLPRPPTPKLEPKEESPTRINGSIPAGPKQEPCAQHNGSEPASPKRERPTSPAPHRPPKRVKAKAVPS
# assay: SIRT6 enzymatic activity assay (fluorogenic de-myristoylation of histone H3 peptide-AMC, trypsin-coupled)
# Type: biochemical
# measurement.context: Table 2; compound 20 uM; percentage of signal increase relative to control wells
Answer in %, number only, no unit symbol.

Example entries begin here.
[
  {
    "molecule": "CC1=NCC(c2ccc(O)cc2O)=C1c1ccc(Cl)cc1",
    "% activity 20 uM (%)": 53
  },
  {
    "molecule": "C=C(CC)Nc1ccc(-c2cc(C(=O)NCCCN3CCCCCC3)c3ccccc3n2)cc1",
    "% activity 20 uM (%)": 62
  },
  {
    "molecule": "C=C1Nc2nc(OC(C)=O)c(C)c(C)c2S1",
    "% activity 20 uM (%)": 40
  },
  {
    "molecule": "C=C(OC(C)CC)C1=C(C)NC2=C(C(=C)C(C(=C)OC)C(C)C2)C1c1ccc(N(CC)CC)cc1 (centres unmarked)",
    "% activity 20 uM (%)": 37
  },
  {
    "molecule": "C=C(Nc1ccc(CCC)cc1)C1=C(C)c2c(nc(C)nc2N(C)c2ccc(C(C)C)cc2)C1",
    "% activity 20 uM (%)": 32
  },
  {
    "molecule": "Cc1noc(-c2cccc(OC3CN(C(=O)c4cccc5[nH]ccc45)C3)c2)n1",
    "% activity 20 uM (%)": 38
  },
  {
    "molecule": "COc1cc(NC(=O)c2csc(-c3cn(C)c4ncccc34)n2)cc(OC)c1",
    "% activity 20 uM (%)": 31
  }
]

Reported % activity 20 uM for CCC(=O)Nc1ccc(-c2cc(C(=O)NCCCN3CCCCC3C)c3ccccc3n2)cc1 (centres unmarked) was 40

---

# maps each entry to its % activity 20 uM
# test.system: Human recombinant SIRT6 (Homo sapiens)
# Construct: six-histidine (His6); made in house; host or cells: Escherichia coli BL21
# assay: SIRT6 enzymatic activity assay (fluorogenic de-myristoylation of histone H3 peptide-AMC, trypsin-coupled)
# Format: biochemical
# measurement.context: Table 2; compound 20 uM; percentage of signal increase relative to control wells
Answer in %, number only, no unit symbol.

Reported % activity 20 uM for N#Cc1cccc(-c2cn3c(n2)N(C(=O)c2ccncc2)CCC3)c1 [compound 57] was 37

Reported % activity 20 uM for C=C(CN1C(=C)C(c2nc(-c3ccccc3)no2)=C(C)C=C1C)NCCc1ccc(CC)c(CC)c1 [compound 32] was 101

Reported % activity 20 uM for COc1ccc(-c2csc3c(NN)ncnc23)cc1 [compound 20] was 78

Reported % activity 20 uM for Cc1ccc(NC(=O)c2nnc(-c3ccc(NC(=O)c4cccs4)cc3)s2)cc1 [compound 31] was 29

Reported % activity 20 uM for C=C(NCCC)c1ccc(-c2ccc(N3CCCCC3)nc2)cc1 [compound 47] was 63

Reported % activity 20 uM for C=C(Oc1ccc2cnccc2c1)C1=C(N)c2ccccc2C1 [compound 35] was 154

Reported % activity 20 uM for C=C1N(C)C(=O)c2c(nc3n2CC(c2ccc(Br)cc2)=NN3)N1C [compound 11] was 41

Reported % activity 20 uM for O=C(c1ccc(-c2ccc(N3CCCCC3)nc2)cc1)N1CCCC1 [compound 49] was 93

Reported % activity 20 uM for O=C(NCc1cccc(Cl)c1)c1noc2c1CSc1ccccc1-2 [compound 27] was 59

---

# test.system: Human recombinant SIRT6 (Homo sapiens)
# Construct: six-histidine (His6); made in house; host or cells: Escherichia coli BL21
# assay: SIRT6 enzymatic activity assay (fluorogenic de-myristoylation of histone H3 peptide-AMC, trypsin-coupled)
# Format: biochemical
# measurement.context: Table 2; compound 20 uM; percentage of signal increase relative to control wells
# maps each entry to its % activity 20 uM
Answer in %, number only, no unit symbol.

Example entries begin here.
[
  {
    "compound": "CCCC1(CO)CCCN1C(=O)c1ccc2cc[nH]c2c1 (stereo not shown) [compound 56]",
    "property": "% activity 20 uM",
    "display.unit": "%",
    "reported.result": 30
  },
  {
    "compound": "N#Cc1c(N)oc(C2=CC=CC2)c1-c1ccco1 [compound 14]",
    "property": "% activity 20 uM",
    "display.unit": "%",
    "reported.result": 28
  },
  {
    "compound": "CCc1nc(-c2ccccc2)c2cc(Cl)ccc2n1 [compound 1]",
    "property": "% activity 20 uM",
    "display.unit": "%",
    "reported.result": 88
  },
  {
    "compound": "O=C1Nc2ccc(Cl)cc2C(c2ccccc2)C1Nc1ccc(Oc2ccccc2)cc1 (stereo not shown) [compound 13]",
    "property": "% activity 20 uM",
    "display.unit": "%",
    "reported.result": 24
  },
  {
    "compound": "CC1=CC(C)(C)Nc2ccc(OC(=O)c3cccs3)cc21 [compound 5]",
    "property": "% activity 20 uM",
    "display.unit": "%",
    "reported.result": 39
  }
]

Next, consider the following compound.
Reported % activity 20 uM for Cc1ccccc1CSc1ncc(Sc2ccccc2)c(C(=O)NCc2ccccc2)n1 [compound 23] was 55

---

# test.system: Human recombinant SIRT6 (Homo sapiens, UniProt Q8N6T7)
# Construct: six-histidine (His6); made in house; host or cells: Escherichia coli BL21
# assay: SIRT6 enzymatic activity assay (fluorogenic de-myristoylation of histone H3 peptide-AMC, trypsin-coupled)
# Format: biochemical
# measurement.context: Table 2; compound 100 uM; percentage of signal increase relative to control wells
# maps each entry to its % activity 100 uM
Answer in %, number only, no unit symbol.

Example entries begin here.
[
  {
    "smi": "C=S(=C)(c1cc(Cl)ccc1Cl)n1c(/C=C/c2ccc(SC)cc2)nc2ccccc21",
    "property": "% activity 100 uM",
    "display.unit": "%",
    "reported.result": 36
  },
  {
    "smi": "C=C(Nc1ccc(CC)c(Cl)c1)c1cc(N)cc2cn[nH]c12",
    "property": "% activity 100 uM",
    "display.unit": "%",
    "reported.result": 56
  }
]

Next, consider the following molecule.
Let me check: C=C(CN1C(=C)C(c2nc(-c3ccccc3)no2)=C(C)C=C1C)NC1CCCCC1 , system Human recombinant SIRT6 (Homo sapiens, UniProt Q8N6T7), measured % activity 100 uM is 221
